Entries and their cell viability values follow.
System: Calu-3
Assay: cell viability relative to DMSO; higher = less toxic
Settings: 72 h; 1 nM
Please append the unit to your numeric answer.

In: So what's the measured cell viability for this one? CNC[C@H](O)c1cccc(O)c1 [phenylephrine]
Out: 103%

In: What value of cell viability has been recorded for this entry: COc1ccc(C2CC(c3c(O)cc(C)oc3=O)=NCCS2)c(OC)c1 (stereo not drawn)
Out: 105%

---

cell viability listing for selected compounds.
Tested on: U2OS
Assay: cell viability relative to DMSO; higher = less toxic
Conditions: 72 h; 100 nM
Dear colleague, please return just the value in %, with no unit written.

> print(dat)
                                   compound  target.desc    test.readout  units.symbol  endpoint.result
1  NC[C@H](O)c1ccc(O)c(O)c1 [norepinephrine]         U2OS  cell viability             %             98.5
2  CCOc1cc2ncc(C#N)c(Nc3ccc(OCc4ccccn4)c(Cl)c3)c2cc1NC(=O)/C=C/CN(C)C         U2OS  cell viability             %             96.7
3  COc1ccc(-c2cc(=O)c3c(OC)c(OC)c(OC)c(OC)c3o2)cc1OC         U2OS  cell viability             %               94
4  C[C@@]1(c2cc(-c3cncnc3)c(F)cc2F)CCSC(N)=N1         U2OS  cell viability             %              102

Here's the next entry for you.
In: For the compound shown here, CCN(CC)C(=S)S [ditiocarb-sodium-trihydrate] , give the reported cell viability.
Out: 101
